Just for reference, patent US11096985B2 is where these values come from.

Test system: clinical strains of C. parapsilosis
Test: MIC, clinical yeast strains, C. parapsilosis
Format: cell-based, Candida parapsilosis
Parameters: unit: μg/ml
Settings: C. parapsilosis clinical yeast strain 2
Where a SMILES comes first, the peptide text is derived from it. [ ]: non-standard residue; d: D form.
Examples of molecules with documented Minimum inhibitory concentration follow.

{"columns": ["molecule", "target_desc", "Minimum inhibitory concentration"],
 "data": [
  ["CC(C)C[C@@H](NC(=O)[C@H](N)CCCNC(=N)N)C(=O)N[C@H](CCCCN)C(=O)N[C@H](Cc1c[nH]c2ccccc12)C(=O)N[C@H](Cc1ccccc1)C(=O)N[C@H](Cc1c[nH]c2ccccc12)C(=O)N[C@H](CC(C)C)C(=O)N[C@H](Cc1ccccc1)C(=O)N[C@H](CCCNC(=N)N)C(=O)N[C@H](CCCCN)C(=O)N[C@H](CCCNC(=N)N)C(=O)O [Chain307D] (H-[dR][dL][dK][dW][dF][dW][dL][dF][dR][dK][dR]-OH)", "clinical strains of C. parapsilosis", 8],
  ["CC(C)C[C@@H](NC(=O)[C@@H](CCCCN)NC(=O)[C@@H](Cc1c[nH]c2ccccc12)NC(=O)[C@@H](CCCCN)NC(=O)[C@@H](C)NC(=O)[C@@H](Cc1c[nH]cn1)NC(=O)[C@@H](CC(C)C)NC(=O)[C@@H](CCCNC(=N)N)NC(=O)[C@@H](Cc1c[nH]c2ccccc12)NC(=O)[C@H](N)Cc1c[nH]c2ccccc12)C(=O)N[C@H](Cc1c[nH]c2ccccc12)C(=O)O [Chain109D] (H-[dW][dW][dR][dL][dH][dA][dK][dW][dK][dL][dW]-OH)", "clinical strains of C. parapsilosis", 128],
  ["CC(C)C[C@@H](NC(=O)[C@H](N)CCCNC(=N)N)C(=O)N[C@H](CCCCN)C(=O)N[C@H](CCCNC(=N)N)C(=O)N[C@H](Cc1c[nH]c2ccccc12)C(=O)N[C@H](CCCNC(=N)N)C(=O)N[C@H](CC(C)C)C(=O)N[C@H](Cc1ccccc1)C(=O)N[C@H](CCCNC(=N)N)C(=O)N[C@H](CCCCN)C(=O)N[C@H](CCCNC(=N)N)C(=O)O [Chain306D] (H-[dR][dL][dK][dR][dW][dR][dL][dF][dR][dK][dR]-OH)", "clinical strains of C. parapsilosis", 16]
]}

The record that follows has no Minimum inhibitory concentration shown yet.
-- ask Request: Minimum inhibitory concentration, test system clinical strains of C. parapsilosis, entry CC(C)C[C@@H](NC(=O)[C@@H](Cc1c[nH]c2ccccc12)NC(=O)[C@@H](Cc1ccccc1)NC(=O)[C@@H](Cc1c[nH]c2ccccc12)NC(=O)[C@@H](CCCCN)NC(=O)[C@@H](CCCNC(=N)N)NC(=O)[C@H](N)Cc1c[nH]c2ccccc12)C(=O)N[C@H](Cc1ccccc1)C(=O)N[C@H](CCCCN)C(=O)N[C@H](CCCCN)C(=O)N[C@H](CCCNC(=N)N)C(=O)O [Chain309D] (H-[dW][dR][dK][dW][dF][dW][dL][dF][dK][dK][dR]-OH)
-- reply 64
